Values from patent US20260008793A1

test details: LNP size, PDI and zeta potential by Dynamic Light Scattering (Method A)
Format: physicochemical
condition parameters: LNP formulated by Method A, DLS
Entries and their PDI values follow.
Just the number.

Solved cases (5 shown):
compound	PDI
CCCCCCCCOC(CCCCCN(CCCCO)CCCCCCOC(=O)C(CCCCCCCC)SCCCCC)O[Si](C)(C)OCC(CCCCCC)CCCCCCCC (stereo not drawn)	0.04
CCCCCCCC[Si](C)(C)O[Si](C)(C)OC(CCCCCCC)OCCCCCCN(CCCCO)CCC[C@@H](C)C1CCC2C3CCC4C[C@H](OC)CC[C@]4(C)C3CC[C@@]21C (stereo partly drawn)	0.076
CCCCCCCCCCSC(CCCC)C(=O)OCCCCCCN(CCCCO)CCCCCCO[Si](C)(C)OC(CCCCCCC)OCCCCCCCC (stereo not drawn)	0.18
CCCCCCCCOC(CCCCCN(CCCCO)CCC[C@@H](C)C1CCC2C3CCC4C[C@H](OC)CC[C@]4(C)C3CC[C@@]21C)O[Si](C)(C)CCCCCCCC (stereo partly drawn)	0.14
CCCCCCCCCOC(CCCCCCC)O[Si](C)(C)OCCCCCCN(CCCCO)CCCCCCOC(=O)C(CCCCCC)CCCCCCCC (stereo not drawn)	0.11

Query CCCCCCCCOC(CCCCCN(CCCCO)CCCCCCOC(=O)C(CCCCCCCC)SCCCCC)O[Si](C)(C)CCCCCCCC (stereo not drawn) yields PDI of 0.100

Query CCCCCCCCOC(CCCCCN(CCCCO)CCC[C@@H](C)C1CCC2C3CCC4C[C@H](OC)CC[C@]4(C)C3CC[C@@]21C)O[Si](C)(C)O[Si](C)(C)CCCCCCCC (stereo partly drawn) yields PDI of 0.028

Query CCCCCCCCOC(CCCCCCC)O[Si](C)(C)OCCCCCCN(CCCCO)CCCCCCOC(=O)C(CCCCCC)CCCCCCCC (stereo not drawn) yields PDI of 0.14

* * *

test details: Encapsulation efficiency, RiboGreen RNA assay (Method A)
Format: physicochemical
condition parameters: LNP formulated by Method A
Entries and their EE (%) values follow.
Give a bare numeral; the unit % is implied.

Solved cases (5 shown):
molecule	measurement unit	EE (%)
CCCCCCCCO[Si](C)(C)OC(CCCCCCC)OCCCCCCN(CCCCO)CCC[C@@H](C)C1CCC2C3CCC4C[C@H](OC)CC[C@]4(C)C3CC[C@@]21C (stereo partly drawn) [Example 217]	%	96
CCCCCCCCO[Si](C)(C)O[Si](C)(C)OC(CCCCCCC)OCCCCCCN(CCCCO)CCCCCCOC(=O)C(CCCCCCCC)SCCCCC (stereo not drawn) [Example 184]	%	92
CCCCCCCCC(CCCCCC)C(=O)OCCCCCCN(CCCCO)CCCCCCOC(CCCCCCC)O[Si](C)(C)O[Si](C)(C)CCCCCCCC (stereo not drawn) [Example 133]	%	97
CCCCCCCC[Si](C)(C)O[Si](C)(C)OC(CCCCCCC)OCCCCCCN(CCCCO)CCCCCCOC(CCCCCCC)O[Si](C)(C)O[Si](C)(C)CCCCCCCC (stereo not drawn) [Example 108]	%	94
CCCCCCCCCCSC(CCCC)C(=O)OCCCCCCN(CCCCO)CCCCCCOC(CCCCCCC)O[Si](C)(C)CCCCCCCC (stereo not drawn) [Example 167]	%	98

Shift focus to the following entry.
Query CCCCCCCCCCOC(CCCCC)O[Si](C)(C)OCCCCCCN(CCCCO)CCCCCCOC(=O)C(CCCCCC)CCCCCCCC (stereo not drawn) [Example 145] yields EE (%) of 97
